Data origin: paper PMC10674780

- TARGET SYSTEM: PARP-1 (Homo sapiens)
- Sequence (P09874 2-1014): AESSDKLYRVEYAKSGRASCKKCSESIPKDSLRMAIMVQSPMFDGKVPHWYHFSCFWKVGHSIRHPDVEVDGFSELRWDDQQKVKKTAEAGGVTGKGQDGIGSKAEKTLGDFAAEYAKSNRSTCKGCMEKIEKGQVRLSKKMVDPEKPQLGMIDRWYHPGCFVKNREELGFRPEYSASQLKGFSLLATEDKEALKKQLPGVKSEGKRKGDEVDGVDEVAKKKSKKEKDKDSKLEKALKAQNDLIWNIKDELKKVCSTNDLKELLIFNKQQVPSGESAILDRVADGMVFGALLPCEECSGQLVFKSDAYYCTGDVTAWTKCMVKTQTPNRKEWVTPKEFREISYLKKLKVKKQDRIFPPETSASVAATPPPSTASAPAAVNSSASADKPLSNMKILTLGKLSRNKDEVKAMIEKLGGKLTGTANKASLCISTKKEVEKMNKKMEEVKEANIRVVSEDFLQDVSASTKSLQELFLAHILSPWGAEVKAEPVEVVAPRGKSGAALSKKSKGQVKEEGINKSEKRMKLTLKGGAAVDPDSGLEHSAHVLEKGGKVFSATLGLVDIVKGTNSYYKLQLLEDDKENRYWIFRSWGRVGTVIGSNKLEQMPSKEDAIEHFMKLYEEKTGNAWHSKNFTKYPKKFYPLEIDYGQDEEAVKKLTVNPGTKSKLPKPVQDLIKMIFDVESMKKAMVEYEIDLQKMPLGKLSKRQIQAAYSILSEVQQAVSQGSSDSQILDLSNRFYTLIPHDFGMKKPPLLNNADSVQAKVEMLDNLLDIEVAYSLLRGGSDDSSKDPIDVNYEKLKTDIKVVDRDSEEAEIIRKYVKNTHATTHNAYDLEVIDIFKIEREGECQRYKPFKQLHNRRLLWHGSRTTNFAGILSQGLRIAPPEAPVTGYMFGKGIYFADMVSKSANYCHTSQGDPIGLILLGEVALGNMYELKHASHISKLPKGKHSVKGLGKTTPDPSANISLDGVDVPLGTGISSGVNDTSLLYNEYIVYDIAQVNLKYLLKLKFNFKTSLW
RECORDED METRIC: IC50 (nM)
// return numeric value only (unit: nM, not printed)

Qu. Give the observed IC50 of `NNC(=O)CNC(=O)COc1cc(Cl)c(Cl)cc1Cl` for PARP-1 (Homo sapiens).
Ans. 1.52
